TEST TARGET: iron-based NHase from Rhodococcus erythropolis AJ270 (Rhodococcus erythropolis)
Construct: purchased Prozomix Limited
Sequence (P13448 1-207): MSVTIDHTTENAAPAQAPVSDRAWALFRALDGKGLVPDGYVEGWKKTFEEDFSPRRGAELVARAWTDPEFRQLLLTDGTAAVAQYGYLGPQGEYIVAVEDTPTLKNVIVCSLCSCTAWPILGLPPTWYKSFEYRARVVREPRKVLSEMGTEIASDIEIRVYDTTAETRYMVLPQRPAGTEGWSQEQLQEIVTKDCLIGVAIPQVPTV
Sequence (P13449 1-212 partner): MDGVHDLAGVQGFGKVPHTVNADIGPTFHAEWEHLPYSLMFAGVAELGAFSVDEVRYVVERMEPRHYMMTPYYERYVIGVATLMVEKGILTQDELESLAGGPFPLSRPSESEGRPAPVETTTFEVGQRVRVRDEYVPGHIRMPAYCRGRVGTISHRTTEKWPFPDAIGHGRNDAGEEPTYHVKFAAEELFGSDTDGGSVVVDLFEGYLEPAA
RUN DESCRIPTION: Enzymatic inhibition of nitrile hydratase (NCTB conversion, 412 nm)
Format: biochemical
CONDITION PARAMETERS: [B]/[Dimedone] = 2.5 mM, 1 mM NCTB, 23° C.
# Average rate (abs/min) values compiled below
The number alone won't do; follow it with the unit.

> print(dat)
                                   compound            reported.result
1                            OB1OCc2ccccc21  0.00205 ± 0.00009 abs/min
2                         OB(O)c1cccc(Br)c1   0.00319 ± 0.0007 abs/min
3  CC1(C)CC(=O)CC(=O)C1 [Dimedone, 5,5-dimethyl-1,3-cyclohexanedione, reference compound]                  0 abs/min

Query: Annotate the compound OB(O)c1ccccc1 with its measured Average rate (abs/min).
Result: 0.0038 ± 0.0001 abs/min

----------
TEST TARGET: iron-based NHase from Rhodococcus erythropolis AJ270 (Rhodococcus erythropolis)
Construct: purchased Prozomix Limited
RUN DESCRIPTION: Enzymatic inhibition of nitrile hydratase (NCTB conversion, 412 nm)
Format: biochemical
CONDITION PARAMETERS: [B]/[Dimedone] = 0.5 mM; NHase without additive = 100%
# Rate relative to NHase values compiled below
Number only, in %; omit the unit.

In the examples that follow, each entry is paired with its recorded Rate relative to NHase.
> print(dat)
            molecule  reported.result
1  OB(O)c1cccc(Br)c1               87
2      OB(O)c1ccccc1               96
3     OB1OCc2ccccc21               87

Query: Annotate the molecule CC1(C)CC(=O)CC(=O)C1 [Dimedone, 5,5-dimethyl-1,3-cyclohexanedione, reference compound] with its measured Rate relative to NHase.
Result: 61

Each recorded value in this set is attributed to patent US8980544B2.
